test system: HCT-116 cells; assay: Inhibition of cell growth (MTT), HCT-116 cells; details: Homo sapiens, HCT-116, 120 h, read-out: IC50 HCT 116 cells

{"molecule": "O=C1CCCCc2cnn3c(NC4CC4)cc(nc23)Nc2cccc(c2)N1 [Compound 18b]", "IC50": "< 3000 nM"}
{"molecule": "CCN(CC)C1CCN(C(=O)c2cccc(Nc3nc4nc5c(cnn35)CCCCC(=O)Nc3cccc(c3)N4)c2)C1 (stereo not shown) [Compound 11p]", "IC50": "< 1000 nM"}
{"molecule": "CN1CC(NC(=O)c2cccc(Nc3nc4nc5c(cnn35)CCCCC(=O)Nc3cccc(c3)N4)c2)C1 [Compound 11m]", "IC50": "< 1000 nM"}
{"molecule": "CN1CCC(N(C)C(=O)c2cccc(Nc3nc4nc5c(cnn35)CCCCC(=O)Nc3cccc(c3)N4)c2)CC1 [Compound 11o]", "IC50": "< 1000 nM"}
